Assay: Acute toxicity (LD50) in mice
Assay type: in vivo
Settings: mouse, in vivo, ip; mice, intraperitoneal; compounds tested in a solution containing ascorbic acid; read-out: LD50 intraperitoneal
Endpoint Label: LD50 (mg/kg)

- CCC12CCCN3CCc4c(n(c5ccccc45)C(C(=O)NC4CC4)C1)C32 (centres unmarked) [SLD 105, N-cyclopropyldesoxyvincaminamide]: 165
- CCC12CCCN3CCc4c(n(c5ccccc45)C(C(N)=O)C1)C32 (centres unmarked) [SLC 156, Desoxyvincaminamide]: 210
